Target: APCE (Homo sapiens)
Construct: APCE lacks the first 23 amino terminal residues of FAP; tissue Sylvan Goldman Blood Institute (source of the plasma); host or cells: human plasma
Sequence (Q12884 24-760 limits assumed): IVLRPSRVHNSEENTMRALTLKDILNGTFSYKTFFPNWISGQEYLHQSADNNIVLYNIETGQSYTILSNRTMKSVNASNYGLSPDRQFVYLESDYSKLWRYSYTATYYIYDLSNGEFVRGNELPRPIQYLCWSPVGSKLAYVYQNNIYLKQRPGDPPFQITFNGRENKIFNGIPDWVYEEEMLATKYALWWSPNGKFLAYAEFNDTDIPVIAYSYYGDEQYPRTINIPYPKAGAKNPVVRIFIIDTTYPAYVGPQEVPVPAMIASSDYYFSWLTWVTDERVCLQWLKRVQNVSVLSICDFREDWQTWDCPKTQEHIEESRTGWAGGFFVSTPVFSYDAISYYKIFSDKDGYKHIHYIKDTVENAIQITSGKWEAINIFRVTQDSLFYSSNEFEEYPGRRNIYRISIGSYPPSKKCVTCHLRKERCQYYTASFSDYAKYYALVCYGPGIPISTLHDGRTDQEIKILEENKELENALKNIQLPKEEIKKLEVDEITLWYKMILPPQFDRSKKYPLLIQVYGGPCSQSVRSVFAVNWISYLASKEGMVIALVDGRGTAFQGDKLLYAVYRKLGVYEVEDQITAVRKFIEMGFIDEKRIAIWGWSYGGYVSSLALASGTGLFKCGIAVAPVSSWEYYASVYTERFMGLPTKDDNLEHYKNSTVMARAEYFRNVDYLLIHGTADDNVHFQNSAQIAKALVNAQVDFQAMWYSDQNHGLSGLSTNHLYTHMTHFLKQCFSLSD
Assay: APCE enzyme assay with fluorescent AMC substrates, competitive inhibition constants
Assay type: biochemical
Conditions: ratio of Ki values
MEASURED_ENDPOINT: Selectivity, Ki (DPPIV)/Ki (APCE/FAP)

CC(=O)NC(CCCNC(=N)N)C(=O)NCCOCCOCC(=O)NC(C)C(=O)N1CCCC1B(O)O [Ac-Arg-peg-D-Ala-DL(50:50%)-boroPro] :: 1176
CC(=O)N[C@@H](CCCNC(=N)N)C(=O)NCCOCCOCC(=O)N[C@@H](CO)C(=O)NCC(=O)N1CCC[C@H]1B(O)O [Ac-Arg-peg-Ser-Gly-L-boroPro] :: 319
CC(=O)NC(CCCNC(=N)N)C(=O)NCC(=O)NCC(=O)N1CCCC1B(O)O (racemic) [Ac-Arg-Gly-Gly-DL-boroPro] :: 14.9
CC(=O)NC(CCCNC(=N)N)C(=O)NCCOCCOCC(=O)NCC(=O)N1CCCC1B(O)O (racemic) [Ac-Arg-peg-Gly-DL-boroPro] :: 371

P: CC(=O)N[C@@H](CCCNC(=N)N)C(=O)NCCOCCOCC(=O)NCC(=O)N1CCC[C@H]1B(O)O [Ac-Arg-peg-Gly-L-boroPro]
Q: CC(=O)NC(CCCNC(=N)N)C(=O)NCCOCCOCC(=O)NC(C)C(=O)N1CCCC1B(O)O (single isomer, unassigned) [Ac-Arg-peg-D-Ala-D-boroPro]
R: CC(=O)NC(CCCNC(=N)N)C(=O)NCCOCCOCC(=O)NC(C)C(=O)N1CCCC1B(O)O (single isomer, unassigned) [Ac-Arg-peg-D-Ala-L-boroPro]
S: CC(=O)N[C@@H](CCCNC(=N)N)C(=O)NCC(=O)NCC(=O)N1CCC[C@H]1B(O)O [Ac-Arg-Gly-Gly-L-boroPro]
T: CC(=O)N[C@@H](CCCNC(=N)N)C(=O)NCCOCCOCC(=O)N[C@H](CC(=O)O)C(=O)N1CCC[C@H]1B(O)O [Ac-Arg-peg-D-Asp-L-boroPro]
Order field: Selectivity, Ki (DPPIV)/Ki (APCE/FAP) | Direction: descending (largest first) Arrange the labels as the request states and list them.
R, P, Q, S, T
(R: 1075, P: 244, Q: 108, S: 18.7, T: 5.2)

---

molecular target: APCE (Homo sapiens); construct: APCE lacks the first 23 amino terminal residues of FAP; tissue Sylvan Goldman Blood Institute (source of the plasma); host or cells: human plasma; assay: APCE enzyme assay with fluorescent AMC substrates, competitive inhibition constants; type: biochemical; settings: read-out: APCE/FAP Ki
MEASURED_ENDPOINT: Ki (nM)

CC(=O)N[C@@H](CCCNC(=N)N)C(=O)NCC(=O)NCC(=O)N1CCC[C@H]1B(O)O [Ac-Arg-Gly-Gly-L-boroPro] :: 17.2
CC(=O)NC(CCCNC(=N)N)C(=O)NCCOCCOCC(=O)NC(C)C(=O)N1CCCC1B(O)O (single isomer, unassigned) [Ac-Arg-peg-D-Ala-L-boroPro] :: 5.7
CC(=O)N[C@@H](CCCNC(=N)N)C(=O)NCCOCCOCC(=O)N[C@H](CC(=O)O)C(=O)N1CCC[C@H]1B(O)O [Ac-Arg-peg-D-Asp-L-boroPro] :: 1380
CC(=O)NC(CCCNC(=N)N)C(=O)NCCOCCOCC(=O)NC(C)C(=O)N1CCCC1B(O)O [Ac-Arg-peg-D-Ala-DL(50:50%)-boroPro] :: 9.5
CC(=O)NC(CCCNC(=N)N)C(=O)NCCOCCOCC(=O)NCC(=O)N1CCCC1B(O)O (racemic) [Ac-Arg-peg-Gly-DL-boroPro] :: 3.1

I: CC(=O)N[C@@H](CCCNC(=N)N)C(=O)NCCOCCOCC(=O)NCC(=O)N1CCC[C@H]1B(O)O [Ac-Arg-peg-Gly-L-boroPro]
II: CC(=O)NC(CCCNC(=N)N)C(=O)NCC(=O)NCC(=O)N1CCCC1B(O)O (racemic) [Ac-Arg-Gly-Gly-DL-boroPro]
Hi, I'm comparing I with II and wondering which one has the bigger number for Ki. Any idea? Identify your pick by its label.
II
(II: 22.9 nM, I: 1.8 nM)

---

molecular target: APCE (Homo sapiens); construct: APCE lacks the first 23 amino terminal residues of FAP; tissue Sylvan Goldman Blood Institute (source of the plasma); host or cells: human plasma; test: APCE enzyme assay with fluorescent AMC substrates, competitive inhibition constants; type: biochemical; conditions: best-fit value ± standard error; read-out: Ki, inhibition of APCE activity
pKi: −log10 of the molar value. Where a SMILES comes first, the peptide text is derived from it. [ ]: non-standard residue; d: D form. Pip = O=C(O)[C@@H]1CCCCN1; AEEA = NCCOCCOCC(=O)O
MEASURED_ENDPOINT: pKi

Reading of pKi for N=C(N)NCCC[C@H](NC(=O)[C@@H](N)Cc1ccccc1)C(=O)NCCOCCOCC(=O)NCC(=O)N1CCCC[C@H]1C(N)=O [Inhibitor (11), FR-peg-G-pipecolinamide] (H-FR[AEEA]G[Pip]-NH2) with APCE (Homo sapiens): < 3.00

---

Please consider the recorded Ki for DPPIV (Homo sapiens, UniProt P27487) in what follows.
MEASURED_ENDPOINT: Ki (nM)

CC(=O)NC(CCCNC(=N)N)C(=O)NCCOCCOCC(=O)NCC(=O)N1CCCC1B(O)O (racemic) :: 1150

A: CC(=O)N[C@@H](CCCNC(=N)N)C(=O)NCC(=O)NCC(=O)N1CCC[C@H]1B(O)O
B: CC(=O)NC(CCCNC(=N)N)C(=O)NCCOCCOCC(=O)NC(C)C(=O)N1CCCC1B(O)O (stereo not drawn)
Hi, I'm comparing A with B and wondering which one has the bigger number for Ki. Any idea? Identify your pick by its label.
B
